- Tested on: Ba/F3 cells KRAS G12C
- assay: Ba/F3 proliferation assay (KRAS G12C)
- Assay type: cell-based
- settings: Mus musculus, BaF3, 72 h, AlamarBlue viability
- Description: Ba/F3 cells are ordered from DSMZ (ACC300, Lot17) and grown in RPMI-1640 (ATCC 30-2001)+10% FCS+10 ng/mL IL-3 at 37° C. in 5% […] atmosphere. Plasmids containing KRASG12 mutants (i.e. […], G12C, G12V) are obtained from GeneScript. To generate KRASG12-dependent Ba/F3 models, Ba/F3 cells are transduced with retroviruses containing vectors that harbor KRASG12 isoforms. Platinum-E cells (Cell Biolabs) are used for retrovirus packaging. Retrovirus is added to Ba/F3 cells. […]
Task for the reader: assign each of the following molecules its reported pIC50.
Units for pIC50: none; it is -log10 of a concentration expressed in mol/L.

Answer with pIC50 of CO[C@H]1C[C@@H]([C@H](C)Oc2nc(-c3onc4c3CCC[C@@]43CCCc4sc(N)c(C#N)c43)nc3c2n(C)c(=O)n3[C@@H]2CCOC2)N(C)C1 [I-2] measured for Ba/F3 cells KRAS G12C.
7.39

Provide measured pIC50 on Ba/F3 cells KRAS G12C for C[C@H](Oc1nc(-c2onc3c2CCC[C@@]32CCCc3sc(N)c(C#N)c32)nc2c1cnn2[C@@H]1CCOC1)[C@@H]1CCCN1C [I-43] please.
7.49

Return reported pIC50 for target or system Ba/F3 cells KRAS G12C, item CO[C@H]1CCN(C)[C@@H]1[C@H](C)Oc1nc(-c2onc3c2CCC[C@@]32CCCc3sc(N)c(C#N)c32)nc2c1n(C)c(=O)n2[C@@H]1CCOC1 [I-23] .
8.40

Retrieve pIC50 on Ba/F3 cells KRAS G12C; query CO[C@@H]1C[C@@H]([C@H](C)Oc2nc(-c3onc4c3CCC[C@@]43CCCc4sc(N)c(C#N)c43)nc3c2n(C)c(=O)n3[C@@]23COC[C@@H]2C3)N(C)C1 [I-46]
8.70

State recorded pIC50 with Ba/F3 cells KRAS G12C, entry C[C@H](Oc1nc(-c2noc3c2CCC[C@@]32CCCc3sc(N)c(C#N)c32)nc2c1CCC21CCOC1)[C@@H]1CCCN1C (some centres unmarked) [II-18] , no comment.
7.51

Enter pIC50 (test system Ba/F3 cells KRAS G12C) for C[C@H](Oc1nc(-c2onc3c2CCC[C@@]32CCCc3sc(N)c(C#N)c32)nc2c1n(C)c(=O)n2[C@@H]1CCOC1)C12CCCN1CCC2 [I-25]
7.92

Report the value of pIC50 obtained on Ba/F3 cells KRAS G12C for CO[C@@H]1C[C@@H]([C@H](C)Oc2nc(-c3noc4c3CCC[C@@]43CCCc4sc(N)c(C#N)c43)nc3c2CN(C2COC2)C[C@]32CCOC2)N(C)C1 [II-14] .
8.52

Look up and report measured pIC50 (Ba/F3 cells KRAS G12C) for the following molecule: CO[C@@H]1C[C@@H]([C@H](C)Oc2nc(-c3noc4c3CCC[C@@]43CCCc4sc(N)c(C#N)c43)nc3c2COC[C@]32CCOC2)N(C)C1 [II-11]
9.00

State pIC50 (Ba/F3 cells KRAS G12C) of C[C@H](Oc1nc(-c2noc3c2CCC[C@@]32CCCc3sc(N)c(C#N)c32)nc2c1n(C)c(=O)n2[C@H]1CO[C@@H](C)C1)[C@@H]1CCCN1C [II-5] .
9.00

Report measured pIC50 on Ba/F3 cells KRAS G12C; entry: CO[C@H]1CCN(C)[C@@H]1[C@H](C)Oc1nc(-c2onc3c2CCC[C@@]32CCCc3sc(N)c(C#N)c32)nc2c1CN(C1COC1)C[C@]21CCOC1 [I-57]
8.52

Param request: pIC50 | system Ba/F3 cells KRAS G12C | item C[C@@H]1COC[C@H](n2c(=O)n(C)c3c(O[C@@H](C)[C@@H]4CCCN4C)nc(-c4onc5c4CCC[C@@]54CCCc5sc(N)c(C#N)c54)nc32)C1 [I-44]
8.52

Enter pIC50 (test system Ba/F3 cells KRAS G12C) for C[C@H](Oc1nc(-c2noc3c2CCC[C@@]32CCCc3sc(N)c(C#N)c32)nc2c1CNC[C@]21CCOC1)[C@@H]1CCCN1C [II-15]
9.00

// fetch pIC50 for C[C@H](Oc1nc(-c2onc3c2CCC[C@@]32CCCc3sc(N)c(C#N)c32)nc2c1CN(C1COC1)C[C@]21CCOC1)[C@@H]1CCCN1C [I-56] ; system: Ba/F3 cells KRAS G12C
8.40

Enter pIC50 (test system Ba/F3 cells KRAS G12C) for C[C@H](Oc1nc(-c2noc3c2CCC[C@@]32CCCc3sc(N)c(C#N)c32)nc2c1CN(c1ncccn1)[C@@]21CCOC1)[C@@H]1CCCN1C [II-7b]
7.21

meta.source: patent US20250019385A1
